- assay_explanation: qHTS assay to identify small molecule HDAC inhibitors - cell viability counter screen (AID 1259365); note: nearly all actives have a fitted effect of over 50% in size
- conditions_used: HCT-116 viability, CellTiter-Glo ATP luminescence, 2 h; series mostly up to 92.4 µM
The source made the active and inactive calls. Calls come from the whole dose curve; as a rule, active = well fitted cell-killing curve with a large enough effect in the repeat runs; inconclusive = weak or mixed curves, or effect the other way; inactive = flat fitted curve, though single readings scatter.
I would appreciate it if you answered using one of these outcomes: active, inactive

{"compound": "Cc1ccc(S(=O)(=O)O)cc1", "category": "inactive"}
{"compound": "OC[C@H]1O[C@H](O[C@]2(CCl)O[C@H](CCl)[C@@H](O)[C@@H]2O)[C@H](O)[C@@H](O)[C@H]1Cl", "category": "inactive"}
{"compound": "Nc1ccc(O)c([N+](=O)[O-])c1", "category": "inactive"}
{"compound": "CC(C)C(=O)Nc1ccc([N+](=O)[O-])c(C(F)(F)F)c1", "category": "inactive"}
{"compound": "O=C1NS(=O)(=O)c2ccccc21", "category": "inactive"}
{"compound": "Oc1ccccc1", "category": "inactive"}
{"compound": "CCCCOC(=O)c1ccc(O)cc1", "category": "inactive"}
{"compound": "CN(C)CCOC(C)(c1ccccc1)c1ccccn1 (stereo not given)", "category": "inactive"}
{"compound": "CS(=O)(=O)OCCCCOS(C)(=O)=O", "category": "inactive"}
{"compound": "CNNCc1ccc(C(=O)NC(C)C)cc1", "category": "inactive"}

What classification did Cc1ncc([N+](=O)[O-])n1C end up with in this test? inactive

What classification did Cn1c(=O)c2c(ncn2C)n(C)c1=O end up with in this test? inactive

What classification did Cc1ncc([N+](=O)[O-])n1CCO end up with in this test? inactive

What classification did CN(N=O)C(=O)N[C@@H]1[C@@H](O)[C@H](O)[C@@H](CO)O[C@@H]1O end up with in this test? inactive

What classification did CC(C)c1c(C(=O)Nc2ccccc2)c(-c2ccccc2)c(-c2ccc(F)cc2)n1CC[C@@H](O)C[C@@H](O)CC(=O)O end up with in this test? inactive
